Recorded values, source ChEMBL document CHEMBL4004822.

For each record, write down the corresponding pIC50.
# experimentalTarget: NAD-dependent protein deacetylase sirtuin-1 (Homo sapiens)
# Sequence (Q96EB6 whole entry, the tested form may be a part): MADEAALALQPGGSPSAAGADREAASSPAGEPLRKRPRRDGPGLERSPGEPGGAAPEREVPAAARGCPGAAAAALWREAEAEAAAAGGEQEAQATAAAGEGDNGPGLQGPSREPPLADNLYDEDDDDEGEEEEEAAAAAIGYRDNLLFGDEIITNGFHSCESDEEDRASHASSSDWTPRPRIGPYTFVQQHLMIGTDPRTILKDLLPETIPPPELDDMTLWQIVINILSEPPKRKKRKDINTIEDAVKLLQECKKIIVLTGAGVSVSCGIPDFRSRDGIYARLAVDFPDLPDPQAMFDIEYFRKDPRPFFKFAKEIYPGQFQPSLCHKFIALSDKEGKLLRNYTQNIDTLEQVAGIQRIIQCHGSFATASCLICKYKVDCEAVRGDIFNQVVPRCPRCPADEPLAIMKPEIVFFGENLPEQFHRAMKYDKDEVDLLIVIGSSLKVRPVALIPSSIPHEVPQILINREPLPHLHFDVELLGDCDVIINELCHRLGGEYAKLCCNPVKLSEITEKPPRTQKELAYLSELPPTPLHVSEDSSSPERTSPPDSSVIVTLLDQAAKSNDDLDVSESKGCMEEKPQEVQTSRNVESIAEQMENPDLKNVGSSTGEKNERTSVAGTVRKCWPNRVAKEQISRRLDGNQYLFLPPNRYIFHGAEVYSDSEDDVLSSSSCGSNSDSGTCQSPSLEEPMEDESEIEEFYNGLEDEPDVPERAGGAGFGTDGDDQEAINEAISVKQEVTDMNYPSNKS
# experimentSummary: Inhibition of recombinant human N-terminal His-tagged SIRT1 (1 to 747 end residues) expressed in Escherichia coli using p53 derived (379 to 382 residues) fluorogenic peptide substrate RHKK(Ac)-AMC preincubated for 10 mins followed by substrate addition in presence of NAD+ by fluorescence assay
Convention used: pIC50 is expressed as -log10 of the molar concentration.

// query # query: pIC50 of entry N#Cc1ccc(CNC2CCc3c(sc4ncn(Cc5cccc6cccnc56)c(=O)c34)C2)cc1 (stereo not given)
// result 4.38

// query Return reported pIC50; argument: COc1ccc(Cn2cnc3sc4c(c3c2=O)CCC(NCc2c(C)noc2C)C4)c2ccccc12 (stereo not given)
// result 3.89

// query Reported pIC50, compound COc1ccc(Cn2cnc3sc4c(c3c2=O)CCC(NC2CCCC2)C4)c2ccccc12 (stereo not given) : ____
// result 4.86

// query What value of measured pIC50 is listed for COc1ccc(CNC2CCc3c(sc4ncn(Cc5c(OC)ccc6ccccc56)c(=O)c34)C2)cc1 (stereo not given) ?
// result 3.92
